# Tested on: A549/ATCC NSCLC
# assay_name: NCI-60 one-dose screen, 48 h (100 = growth as untreated, 0 = no growth, -100 = all killed)
# conditions: 10 µM unless noted
The panel holds about 83,000 compounds, 20% with a hit somewhere; the sample as a whole holds those more often. Active and inactive are the calls of the source. Rule for the calls: active = growth percent below 10; inactive = the rest.
I'd be grateful if you could share measured growth for these entries.

Record O=C(/C=C(/C=C/c1ccc2[nH]ccc2c1)OB(F)F)/C=C/c1ccc2[nH]ccc2c1 : what is its growth with A549/ATCC NSCLC?
-53.6% (active)

Subsequent entry: CCOC(=O)n1ccn(C)c1=S
101% (inactive)

Subsequent entry: Clc1ccc(/C=N\N=C\c2ccc(Cl)c(Cl)c2)cc1Cl
87.2% (inactive)

Subsequent entry: S=c1sc2c(Cl)nc(-c3cccnc3)nc2n1-c1ccccc1
79.9% (inactive)

Subsequent entry: Cn1cc(-c2csc(-c3c[nH]c4ccccc34)n2)c2cnccc21
18% (inactive)
